Tested on: SEM cells
Assay: In vitro cytotoxicity, SEM
Assay type: cell-based, human
Conditions: SEM (B-ALL), CD22-positive; mean ± SEM
measured-metric: IC50 (nM)
Could you give me the number in nM? Just the number is fine.

stdin: Give recorded IC50 with SEM cells for the following compound: COc1cc2c(cc1OCCCCCOc1cc3c(cc1OC)C(=O)N1C=C(C)C[C@H]1C=N3)N=C[C@@H]1CC(C)=CN1C2=O
stdout: 0.005

###

System: MEC-2
Assay: In vitro cytotoxicity, MEC-2
Type: cell-based, human
Settings: MEC-2 (CLL), CD22-positive; mean ± SEM
measured-metric: IC50 (nM)
Note: unit nM is implicit; provide only the numeric part.

stdin: Requested field: IC50. Item: COc1cc2c(cc1OCCCCCOc1cc3c(cc1OC)C(=O)N1C=C(C)C[C@H]1C=N3)N=C[C@@H]1CC(C)=CN1C2=O [SG3199]
stdout: 0.033

###

Test system: DO HH-2
Experiment: In vitro cytotoxicity, DO HH-2
Type: cell-based, human
Conditions: DO HH-2 (FL), CD22-positive; mean ± SEM
measured-metric: IC50 (nM)
Report the value in nM with no unit label.

stdin: Returns the measured IC50 for the input molecule. Input: COc1cc2c(cc1OCCCCCOc1cc3c(cc1OC)C(=O)N1C=C(C)C[C@H]1C=N3)N=C[C@@H]1CC(C)=CN1C2=O
stdout: 0.007
